List of IC50 values.
# target_or_test_system: UniProt:Q92847
# test_protocol: GHS-R 1a receptor-ligand binding assay (membrane preparations from transfected LLC PK-1 cells)
# run_conditions: displacement of 125I-His9-ghrelin (60 pM); membranes of LLC PK-1 cells transfected with human GHS-R 1a; mean of at least two independent experiments in triplicates
measured_property: IC50 (nM)

compound_structure=CCc1ccc(-n2c(CCc3c[nH]c4ccccc34)nnc2[C@@H](Cc2c[nH]c3ccccc23)NC(=O)c2ccccn2)cc1 target_or_test_system=UniProt:Q92847 output_unit=nM value_measured=49
compound_structure=COc1ccc(Cn2c(CCc3ccccc3)nnc2[C@@H](Cc2c[nH]c3ccccc23)NC(=O)[C@@H](N)Cc2ccccc2)cc1 target_or_test_system=UniProt:Q92847 output_unit=nM value_measured=175
compound_structure=COc1cc(Cn2c(CCc3c[nH]c4ccccc34)nnc2[C@@H](Cc2c[nH]c3ccccc23)NC(=O)C(C)(C)N)cc(OC)c1 target_or_test_system=UniProt:Q92847 output_unit=nM value_measured=203
compound_structure=O=C(N[C@H](Cc1c[nH]c2ccccc12)c1nnc(CCc2ccccc2)n1Cc1ccco1)c1ccccn1 target_or_test_system=UniProt:Q92847 output_unit=nM value_measured=81

###

# Tested on: GH concentration in the plasma of male rat pups
# test_protocol: In vivo GH concentration in the plasma of male rat pups
# Design: species or system rat (Sprague-Dawley)
# run_conditions: rat pup plasma; compound 160 μg/kg s.c. at -10 min + hexarelin 80 μg/kg s.c. at 0 min, killed 15 min later
Cut-off 200 ng/mL on GH concentration: below means class 1, at or above means class 0.

compound_structure=COc1ccc(Cn2c(CCc3ccccc3)nnc2[C@@H](Cc2c[nH]c3ccccc23)NC(=O)C2CCNCC2)cc1 cat="class 1"
compound_structure=COc1ccc(Cn2c(CCc3ccccc3)nnc2[C@@H](Cc2c[nH]c3ccccc23)NC(=O)c2ccccn2)c(OC)c1 cat="class 1"
compound_structure=COc1ccc(Cn2c(CCc3c[nH]c4ccccc34)nnc2[C@@H](Cc2c[nH]c3ccccc23)NC(=O)[C@H]2CCCN2)cc1 cat="class 0"
compound_structure=COc1ccc(Cn2c(CCc3c[nH]c4ccccc34)nnc2[C@@H](Cc2c[nH]c3ccccc23)NC(=O)C(C)(C)N)c(OC)c1 cat="class 1"
compound_structure=CC(C)(N)C(=O)N[C@H](Cc1c[nH]c2ccccc12)c1nnc(CCCc2c[nH]c3ccccc23)n1Cc1ccccc1 cat="class 1"
compound_structure=COc1ccc(Cn2c(CCc3ccccc3)nnc2[C@@H](Cc2c[nH]c3ccccc23)NC(=O)CN)cc1 cat="class 1"
compound_structure=COc1ccc(Cn2c(CCc3ccccc3)nnc2[C@@H](Cc2c[nH]c3ccccc23)NC(=O)C(C)(C)N)cc1 cat="class 0"

###

# target_or_test_system: human GHS-R 1a (Homo sapiens)
# Sequence (Q92847 whole entry): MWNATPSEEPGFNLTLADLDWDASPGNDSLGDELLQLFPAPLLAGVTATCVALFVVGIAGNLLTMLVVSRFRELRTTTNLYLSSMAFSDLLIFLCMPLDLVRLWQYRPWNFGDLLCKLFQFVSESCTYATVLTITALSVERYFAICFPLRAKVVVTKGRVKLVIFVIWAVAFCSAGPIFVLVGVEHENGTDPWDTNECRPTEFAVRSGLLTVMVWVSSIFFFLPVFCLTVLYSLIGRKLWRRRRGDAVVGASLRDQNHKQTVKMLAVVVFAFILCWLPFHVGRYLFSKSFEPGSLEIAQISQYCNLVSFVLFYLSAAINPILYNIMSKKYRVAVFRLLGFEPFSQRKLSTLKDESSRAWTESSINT
# test_protocol: GHS-R 1a receptor-ligand binding assay (membrane preparations from transfected LLC PK-1 cells)
# run_conditions: displacement of 125I-His9-ghrelin (60 pM); membranes of LLC PK-1 cells transfected with human GHS-R 1a; mean of at least two independent experiments in triplicates
pIC50: −log10 of the molar value.
Label Condition met when pIC50 is at or above 7; anything below gets Condition not met.

molecule="COc1ccc(Cn2c(CCc3ccccc3)nnc2[C@@H](Cc2c[nH]c3ccccc23)NCCN)c(OC)c1 [compound 180]" target_or_test_system="human GHS-R 1a (Homo sapiens)" cat="Condition not met"
molecule="COc1ccccc1Cn1c(CCc2ccccc2)nnc1[C@@H](Cc1c[nH]c2ccccc12)NC(=O)C(C)(C)N [compound 26]" target_or_test_system="human GHS-R 1a (Homo sapiens)" cat="Condition met"
molecule="COc1ccc(Cn2c(CCc3ccccc3)nnc2[C@@H](Cc2c[nH]c3ccccc23)NC(=O)c2ccncc2)c(OC)c1 [compound 65]" target_or_test_system="human GHS-R 1a (Homo sapiens)" cat="Condition met"
molecule="COc1ccc(Cn2c(CCc3c[nH]c4ccccc34)nnc2[C@@H](Cc2c[nH]c3ccccc23)NC(=O)[C@@H]2CCCN2)cc1 [compound 89]" target_or_test_system="human GHS-R 1a (Homo sapiens)" cat="Condition met"
molecule="COc1ccc(Cn2c(CCc3ccccc3)nnc2[C@@H](Cc2c[nH]c3ccccc23)NC(=O)CCc2cccnc2)cc1 [compound 59]" target_or_test_system="human GHS-R 1a (Homo sapiens)" cat="Condition not met"
molecule="CCc1ccc(Cn2c(CCc3ccccc3)nnc2[C@@H](Cc2c[nH]c3ccccc23)NC(=O)C(C)(C)N)cc1 [compound 43]" target_or_test_system="human GHS-R 1a (Homo sapiens)" cat="Condition met"
molecule="COc1ccc(Cn2c(CCc3c[nH]c4ccccc34)nnc2[C@@H](Cc2c[nH]c3ccccc23)NC(=O)c2ccccn2)c(OC)c1 [compound 73]" target_or_test_system="human GHS-R 1a (Homo sapiens)" cat="Condition met"

Value source: patent US8710089B2
